# assayInfo: physchem
# reportedConditions: logP (acidic), HPLC, 0.1% aqueous formic acid/acetonitrile
endpointName: chromatographic logP

smilesEntry: Cn1nc(C(F)F)c(C(=O)Nc2ccccc2CCC(C)(C)C)c1Cl
endpointName: chromatographic logP
val: 4.01

* * *

# assayInfo: logP by HPLC on reversed-phase column (EEC Directive 79/831 Annex V.A8)
# reportedConditions: HPLC on a reversed-phase column (C 18), EEC Directive 79/831 Annex V.A8
logP less than 4 is label 1; logP greater than or equal to 4 is label 0.

smilesEntry: Cn1nc(C(F)F)c(C(=O)Nc2ccc(Oc3ccccc3)cc2)c1F
classification: label 1

smilesEntry: CC(C)O/N=C/c1ccc(-c2cccc(NC(=O)c3c(C(F)F)nn(C)c3Cl)c2)cc1
classification: label 0

smilesEntry: CC(C)O/N=C/c1ccc(-c2cccc(NC(=O)c3c(C(F)F)nn(C)c3F)c2)cc1
classification: label 0

smilesEntry: Cn1nc(C(F)F)c(C(=O)Nc2ccc(-c3ccccc3)cc2)c1Cl
classification: label 1

smilesEntry: Cn1nc(C(F)F)c(C(=O)Nc2cccc(-c3ccc(OC(F)(F)F)cc3)c2)c1Cl
classification: label 0

smilesEntry: Cn1nc(C(F)F)c(C(=O)Nc2cccc(Sc3ccccc3)c2)c1Cl
classification: label 1

smilesEntry: Cn1nc(C(F)F)c(C(=O)Nc2ccc(C3CCCCC3)cc2)c1Cl
classification: label 0

smilesEntry: Cn1nc(C(F)F)c(C(=O)Nc2cccc(Sc3ccc(C(C)(C)C)cc3)c2)c1F
classification: label 0
